assay-target: T1, fibrinogen (UniProt P02671 20-629; P02675 31-491; P02679 27-437, limits assumed)
T1 construct: Soluble plasma fibrinogen flowed over the Biacore chip; also called free fibrinogen
T1 sequence (looked up) 1: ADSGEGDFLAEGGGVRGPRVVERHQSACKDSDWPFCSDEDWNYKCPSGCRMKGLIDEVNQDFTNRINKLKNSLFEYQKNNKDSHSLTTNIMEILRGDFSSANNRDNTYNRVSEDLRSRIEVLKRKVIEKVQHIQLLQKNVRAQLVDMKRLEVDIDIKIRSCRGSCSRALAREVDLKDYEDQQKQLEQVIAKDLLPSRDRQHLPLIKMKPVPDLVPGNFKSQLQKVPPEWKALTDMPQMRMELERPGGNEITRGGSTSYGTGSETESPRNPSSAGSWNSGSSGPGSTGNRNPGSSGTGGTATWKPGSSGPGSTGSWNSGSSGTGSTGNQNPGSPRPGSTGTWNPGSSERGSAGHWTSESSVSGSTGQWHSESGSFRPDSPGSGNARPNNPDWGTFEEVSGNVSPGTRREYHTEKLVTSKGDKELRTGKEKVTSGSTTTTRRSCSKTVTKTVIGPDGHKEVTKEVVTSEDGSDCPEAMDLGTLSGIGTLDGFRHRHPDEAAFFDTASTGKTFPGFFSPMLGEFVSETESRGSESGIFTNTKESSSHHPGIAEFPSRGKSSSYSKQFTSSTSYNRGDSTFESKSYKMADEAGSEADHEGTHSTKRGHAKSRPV
T1 sequence (looked up) 2: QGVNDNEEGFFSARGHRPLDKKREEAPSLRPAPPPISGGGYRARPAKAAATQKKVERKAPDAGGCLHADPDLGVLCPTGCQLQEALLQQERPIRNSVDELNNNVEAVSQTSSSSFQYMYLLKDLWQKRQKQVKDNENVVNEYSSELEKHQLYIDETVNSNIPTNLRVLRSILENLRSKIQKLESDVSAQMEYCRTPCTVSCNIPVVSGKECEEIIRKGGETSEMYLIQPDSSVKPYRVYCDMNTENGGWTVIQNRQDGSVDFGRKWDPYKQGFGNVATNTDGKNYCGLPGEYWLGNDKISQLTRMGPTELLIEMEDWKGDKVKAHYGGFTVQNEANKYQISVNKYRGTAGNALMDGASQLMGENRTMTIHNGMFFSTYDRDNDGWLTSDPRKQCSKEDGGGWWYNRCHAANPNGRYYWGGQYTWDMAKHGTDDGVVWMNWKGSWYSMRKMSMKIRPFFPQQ
T1 sequence (looked up) 3: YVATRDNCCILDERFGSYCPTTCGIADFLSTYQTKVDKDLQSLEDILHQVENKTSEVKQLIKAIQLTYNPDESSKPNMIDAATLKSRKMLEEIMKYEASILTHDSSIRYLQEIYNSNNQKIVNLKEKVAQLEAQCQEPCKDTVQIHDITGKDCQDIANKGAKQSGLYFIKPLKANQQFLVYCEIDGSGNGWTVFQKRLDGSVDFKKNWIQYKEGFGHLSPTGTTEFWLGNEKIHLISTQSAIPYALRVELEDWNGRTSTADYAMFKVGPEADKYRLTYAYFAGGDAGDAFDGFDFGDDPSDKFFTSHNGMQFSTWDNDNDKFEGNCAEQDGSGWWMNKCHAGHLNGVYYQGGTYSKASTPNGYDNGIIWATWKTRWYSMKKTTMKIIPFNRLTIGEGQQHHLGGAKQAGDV
assay-explanation: SPR (Biacore), peptide-PEG-biotin on streptavidin chip, fibrinogen in flow, Langmuir analysis
No end group written: not given here.
Documented Kd across a set of binders
Kindly answer with a numeric value in µM, unit omitted.

binder	Kd [µM]
APLHK (also: coupled to PEG 3400 carrying biotin, coupled end not given here, also called A-peptide 1) [GPIIbIIIa mimotope peptide 1 (APLHK)]	12.5

Would you kindly look at the next entry?
Write down Kd measured for item EHIPA (also: coupled to PEG 3400 carrying biotin, coupled end not given here, also called B-peptide 2) [GPIIbIIIa mimotope peptide 2 (EHIPA)] 0.334
